Tested on: HCC827
experimentDescription: CCK-8 tumor cell proliferation, HCC827
Format: cell-based
conditionParameters: Homo sapiens, HCC827 cells, 72 hours
recordedEndpoint: IC50 (µM)
Just the number please, in µM, no unit attached.

Request: Write down IC50 measured for item `C=CC(=O)Nc1cccc(-n2c(=O)cc(C)c3cnc(Nc4ccc(N5CCN(CCCCCCCCCCCCCCNC(=O)CC67CC8CC(CC(C8)C6)C7)CC5)cc4OC)nc32)c1`
Response: 0.163

Request: Write down IC50 measured for item `COc1cc(N2CCN(CCCCCCCCCCCCNC(=O)CC34CC5CC(CC(C5)C3)C4)CC2)ccc1Nc1ncc2c(C)cc(=O)n(-c3cccc(NC(=O)C(C)C)c3)c2n1`
Response: 0.309

Request: Write down IC50 measured for item `COc1cc(N2CCN(CCCCCCCCCCCCNC(=O)CC34CC5CC(CC(C5)C3)C4)CC2)ccc1Nc1ncc2c(C)cc(=O)n(-c3cccc(N)c3)c2n1`
Response: 0.186

Request: Write down IC50 measured for item `C=CC(=O)Nc1cccc(-n2c(=O)cc(C)c3cnc(Nc4ccc(N5CCN(CCCCCCNC(=O)CC67CC8CC(CC(C8)C6)C7)CC5)cc4OC)nc32)c1`
Response: 0.105

---

systemTested: AKT1 (Homo sapiens, UniProt P31749)
Construct: AKT1, AKT2, and AKT3 proteins in H1975-OR cells; endogenous in cells; host or cells: H1975-OR (osimertinib-resistant H1975)
Sequence (P31749 whole entry): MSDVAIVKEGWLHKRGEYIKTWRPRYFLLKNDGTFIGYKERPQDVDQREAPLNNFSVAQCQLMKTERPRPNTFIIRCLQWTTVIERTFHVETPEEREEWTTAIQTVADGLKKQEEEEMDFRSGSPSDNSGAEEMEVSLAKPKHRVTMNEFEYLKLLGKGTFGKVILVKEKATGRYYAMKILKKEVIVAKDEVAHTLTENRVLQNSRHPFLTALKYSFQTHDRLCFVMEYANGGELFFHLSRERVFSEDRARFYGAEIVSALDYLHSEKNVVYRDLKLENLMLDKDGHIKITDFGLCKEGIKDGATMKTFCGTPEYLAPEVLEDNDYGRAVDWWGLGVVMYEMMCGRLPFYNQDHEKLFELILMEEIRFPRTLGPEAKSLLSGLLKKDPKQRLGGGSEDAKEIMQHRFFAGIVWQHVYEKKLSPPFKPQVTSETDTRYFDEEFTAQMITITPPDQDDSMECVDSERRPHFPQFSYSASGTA
experimentDescription: Western Blot, degradation of AKT1 protein in H1975-OR cells
Type: cell-based
conditionParameters: 1000 nM, 24 hours, maximum degradation rate
recordedEndpoint: Dmax at 1 µM (%)
Just the number please, in %, no unit attached.

Request: Write down Dmax at 1 µM measured for item `COc1cc(N2CCN(CCCCCCCCNC(=O)CC34CC5CC(CC(C5)C3)C4)CC2)ccc1Nc1ncc2c(C)cc(=O)n(-c3cccc(NC(=O)C4CC4)c3)c2n1`
Response: 0

Request: Write down Dmax at 1 µM measured for item `COc1cc(N2CCN(CCCCCCCCCCCCNC(=O)CC34CC5CC(CC(C5)C3)C4)CC2)ccc1Nc1ncc2c(C)cc(=O)n(-c3cccc(NC(=O)C(C)(C)C)c3)c2n1`
Response: 56

Request: Write down Dmax at 1 µM measured for item COc1cc(N2CCN(CCCCCCCCNC(=O)C3C[C@H]4CC[C@@H]3C4)CC2)ccc1Nc1ncc2c(C)cc(=O)n(-c3cccc(NC(=O)C4CC4)c3)c2n1 (stereo partly drawn)
Response: 14.2

---

systemTested: AKT3 (Homo sapiens, UniProt Q9Y243)
Sequence (Q9Y243 whole entry): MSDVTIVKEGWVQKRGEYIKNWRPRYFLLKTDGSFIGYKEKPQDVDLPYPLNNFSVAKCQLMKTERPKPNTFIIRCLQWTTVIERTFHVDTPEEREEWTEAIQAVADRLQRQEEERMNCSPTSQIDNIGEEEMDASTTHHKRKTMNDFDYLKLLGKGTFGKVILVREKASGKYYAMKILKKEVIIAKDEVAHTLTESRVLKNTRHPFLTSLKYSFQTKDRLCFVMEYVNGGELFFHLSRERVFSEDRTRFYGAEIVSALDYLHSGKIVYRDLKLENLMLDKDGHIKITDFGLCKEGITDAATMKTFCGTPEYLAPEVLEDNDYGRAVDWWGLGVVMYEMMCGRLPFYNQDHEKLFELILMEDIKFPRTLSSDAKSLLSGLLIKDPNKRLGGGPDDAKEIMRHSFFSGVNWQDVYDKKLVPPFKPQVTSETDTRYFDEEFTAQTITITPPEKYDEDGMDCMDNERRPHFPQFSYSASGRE
experimentDescription: Western Blot, degradation of AKT3 protein in H1975-OR cells
Type: cell-based
Design: endogenous in cells; host or cells: H1975-OR (osimertinib-resistant H1975)
conditionParameters: 1000 nM, 24 hours, maximum degradation rate
Quick rule: Dmax at 1 µM of at least 30% means Yes, below that means No.

Request: Exam item: decide whether the reported Dmax at 1 µM for `C=CC(=O)Nc1cccc(-n2c(=O)cc(C)c3cnc(Nc4ccc(N5CCN(CCCCCCCCCCNC(=O)CC67CC8CC(CC(C8)C6)C7)CC5)cc4OC)nc32)c1` is at least 30%.
Response: No

Request: Exam item: decide whether the reported Dmax at 1 µM for `COc1cc(N2CCN(CCCCCCCCNC(=O)C3CC3)CC2)ccc1Nc1ncc2c(C)cc(=O)n(-c3cccc(NC(=O)C4CC4)c3)c2n1` is at least 30%.
Response: No

Request: Exam item: decide whether the reported Dmax at 1 µM for `COc1cc(N2CCN(CCCCCCCCNC(=O)C3CCC(F)(F)CC3)CC2)ccc1Nc1ncc2c(C)cc(=O)n(-c3cccc(NC(=O)C4CC4)c3)c2n1` is at least 30%.
Response: Yes

Request: Exam item: decide whether the reported Dmax at 1 µM for `COc1cc(OCCOCCCCCCCCCCCCOCCC23CC4CC(CC(C4)C2)C3)ccc1Nc1ncc2c(C)cc(=O)n(-c3cccc(NC(=O)C4CC4)c3)c2n1` is at least 30%.
Response: No

Request: Exam item: decide whether the reported Dmax at 1 µM for COc1cc(N2CCN(CCCCCCCCNC(=O)C3C[C@H]4C=C[C@@H]3C4)CC2)ccc1Nc1ncc2c(C)cc(=O)n(-c3cccc(NC(=O)C4CC4)c3)c2n1 (stereo partly drawn) is at least 30%.
Response: No

Request: Exam item: decide whether the reported Dmax at 1 µM for `CCCCCCCCN1CCN(c2ccc(Nc3ncc4c(C)cc(=O)n(-c5cccc(NC(=O)C6CC6)c5)c4n3)c(OC)c2)CC1` is at least 30%.
Response: Yes
